Reported pIC50 for target or system Epidermal growth factor receptor (Homo sapiens, UniProt P00533), by entry.
# pIC50 is unitless: minus log10 of the molar concentration; print number only

> print(dat)
                                   compound  recorded.number
1  C#Cc1cccc(Nc2ncnc3cc(OC)c4c(c23)OCCO4)c1             7.96
2  C#Cc1cccc(Nc2ncnc3cc(OCCOC)c4c(c23)OCCO4)c1             7.68
3  C#Cc1cccc(Nc2ncnc3cc(OC4CCOC4)c4c(c23)OCCO4)c1 (stereo unspecified)             7.78
4  C#Cc1cccc(Nc2ncnc3cc(OCC)c4c(c23)OCCO4)c1             8.04

Attention now turns to another entry.
The compound listed as Brc1cccc(Nc2ncnc3cc(OCCCN4CCOCC4)c4c(c23)OCCO4)c1 shows pIC50 equal to 7.73
